experiment: Half-life in human liver microsomes at 0.1 uM by HPLC-MS/MS analysis; assay type: ADME, Microsome
Endpoint: half-life at 0.1 µM

CCC#CC[C@H](C)[C@H](O)/C=C/[C@H]1CC(F)(F)C(=O)N1CCCCCCC(=O)O : > 1 h

Here is the next item to consider.
Request: Recorded half-life at 0.1 µM for CCC#CC[C@H](C)[C@H](O)/C=C/[C@H]1CCC(=O)N1CCCCCCC(=O)O , please?
Result: > 1 h

====

experiment: Half-life in human blood at 1 uM by HPLC-MS/MS analysis; assay type: ADME, tissue-based
Task for the reader: assign each of the following compounds its reported half-life at 1 µM.

CCC#CC[C@H](C)[C@H](O)/C=C/[C@H]1CC(F)(F)C(=O)N1CCCCCCC(=O)O : > 2 h

Request: Recorded half-life at 1 µM for CCC#CC[C@H](C)[C@H](O)/C=C/[C@H]1CCC(=O)N1CCCCCCC(=O)O , please?
Result: > 2 h
